Values compiled from paper PMC7401278.

Listed below: IC50 values for each entry.
study_system: recombinant SrtA derived from S. aureus ATCC6538p (Staphylococcus aureus)
Construct: made in house; host or cells: Escherichia coli
Sequence (Q2FV99 whole entry): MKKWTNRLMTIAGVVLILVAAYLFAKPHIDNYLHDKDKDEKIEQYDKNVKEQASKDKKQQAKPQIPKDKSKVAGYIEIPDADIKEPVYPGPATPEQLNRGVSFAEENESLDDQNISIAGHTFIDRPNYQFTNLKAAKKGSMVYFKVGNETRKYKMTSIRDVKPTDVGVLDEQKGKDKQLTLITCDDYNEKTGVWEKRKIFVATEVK
assay_explanation: SrtA inhibition assay (fluorescence, cleavage of dabcyl-LPETG-edans)
Format: biochemical
condition_details: SrtA IC50, recombinant SrtA, 37 °C, 1 h
Description: Recombinant SrtA derived from S. aureus ATCC6538p was purified from Escherichia coli extracts using metal chelate-affinity chromatography. The enzyme activity was determined from the fluorescence intensity upon cleavage of a peptide substrate containing the LPETG motif. Throughout the separation process, the crude extract and chromatographic fractions containing fungal metabolites of strain F452 inhibited the activity of SrtA. Accordingly, the same bioassay was performed using pure compounds. […]
Kindly provide the numeric value in µM only, without the unit symbol.

# lookup: IC50 of CCC(C)C1NC(=O)C(C(C)C)n2c1nc1c(c2=O)C=C(OC)C=CO1 (stereo not shown)
193

For the molecule CC1C(=O)N2c3ccccc3C3(O)CC(n4cnc5ccccc5c4=O)C(=O)N1C23 (stereo not shown) , what IC50 is on record?
268

# query: IC50 of entry CC1CCC2C(C=CC(C)(O)C2(C)C(=O)CCO)C1 (stereo not shown)
146

Name the reported IC50 value associated with the molecule CC(C)C1C(=O)N2c3ccccc3C3(O)CC(n4cnc5ccccc5c4=O)C(=O)N1C23 (stereo not shown) [Compound 6, isochaetominine C]
216
